Data provenance is ChEMBL document CHEMBL1201862.

- Test system: SF-268
- PROTOCOL: NCI tumour cell line growth inhibition, 48 h
Activity calls are given as the source filed them. Rule as the data show it: active = GI50 up to about 1.1 µM and inactive = higher. *1 amine or outer side, *2 acyl side, *3 side chain or, on linkers, in order; H or OH if unused. Where a SMILES comes first, the peptide text is derived from it. [ ]: non-standard residue; d: D form. The star is where a group is joined. ξ: configuration not given here. NMeY = CN[C@@H](Cc1ccc(O)cc1)C(=O)O; Ethylenediamine = C(CN[*:2])N[*:1]; ξNMeL = CNC(CC(C)C)C(=O)O; Cbz = O=C(OCc1ccccc1)*; Lac = C[C@H](O)C(=O)O; ξA = CC(N)C(=O)O
Can you answer with just one of these options? active, inactive

OC[C@H]1O[C@@H](n2cnc3cncnc32)[C@H](O)[C@@H]1O :: active
COc1cc2oc3c(c(=O)c2c(O)c1/C=C/C(C)C)C(C=C(C)C)Oc1cc(O)ccc1-3 (stereo not drawn) :: inactive
CC(=O)/C=C1\Nc2ccc([N+](=O)[O-])cc2N\C1=C/C(C)=O :: inactive
COC(=O)CNC(=O)/C=C/[C@H](O[Si](C)(C)C(C)(C)C)[C@H](/C=C/C(=O)NCC(=O)OC)O[Si](C)(C)C(C)(C)C :: inactive

Task: Dear colleague, could you share the recorded outcome for `CC(=O)n1c2ccccc2c2nc3nc(Oc4ccc(C)cc4)c4ccccc4c3cc21` when you have a moment?
Output: inactive

Task: And then COc1ccc(OC(=O)CC2Cc3cc(OC)c(OC)c(OC)c3-c3ccc(SC)c(=O)cc32)cc1 (stereo not drawn) , what is it?
Output: inactive

Task: And then `COc1ccc(NS(=O)(=O)c2ccc3ncn(NS(=O)(=O)c4ccc(I)cc4)c(=O)c3c2)cc1` , what is it?
Output: inactive

Task: And then COC(=O)CCC(C)[C@H]1CCC2C3C(C[C@H](OC(C)=O)[C@@]21C)[C@@]1(C)CCC2(C[C@H]1C[C@H]3OC(C)=O)OOC1(CCCCC1)OO2 (stereo partly drawn) , what is it?
Output: inactive

Task: And then NC(=O)CCC(NC(=O)c1cccc2c(=O)c3ccccc3[nH]c12)C(=O)O (stereo not drawn) , what is it?
Output: inactive

Task: And then COc1ccc(C[C@@H](C(=O)NCCNC(=O)C(CC(C)C)N(C)C(=O)[C@@H]2CCCN2C(=O)[C@H](C)O)N(C)C(=O)[C@@H]2CCCN2C(=O)[C@H](CC(C)C)NC(=O)C(C)NC(=O)OCc2ccccc2)cc1 (stereo partly drawn) (Cbz-[ξA]LP[NMeY](Me)-{Ethylenediamine-ξNMeL-Pro-Lac}) , what is it?
Output: inactive

Task: And then `O=C(O)Cc1ccc(Nc2nc3cc(C(F)(F)F)ccc3nc2C(=O)O)cc1` , what is it?
Output: inactive

Task: And then `COc1ccc(/C(Br)=C2\OC(=O)c3ccccc32)cc1` , what is it?
Output: inactive

Task: And then CC1CCC(C(C)(C)c2ccccc2)C(=O)C1 (stereo not drawn) , what is it?
Output: inactive

Task: And then COC(=O)CC1C2(C)C3=C(C)C(c4ccoc4)CC3OC2C2OC(=O)C3(C)C=CC(=O)C1(C)C23 (stereo not drawn) , what is it?
Output: inactive

Task: And then `Cc1ccnc2sc3ccccc3c(=O)c12` , what is it?
Output: inactive

Task: And then CC(C)C(C/C=C1\CC(CO)(COC(=O)C(C)(C)C)OC1=O)C(C)C (stereo not drawn) , what is it?
Output: inactive

Task: And then `Cc1ccc2c(O)cc(-c3ccsc3)nc2n1` , what is it?
Output: inactive

Task: And then `Cc1cc(N(CCC#N)CCC#N)ccc1/N=N/c1ccc(S(N)(=O)=O)cc1` , what is it?
Output: inactive
